Target: human P2X7 (Homo sapiens (Human))
Sequence (Q99572 whole entry): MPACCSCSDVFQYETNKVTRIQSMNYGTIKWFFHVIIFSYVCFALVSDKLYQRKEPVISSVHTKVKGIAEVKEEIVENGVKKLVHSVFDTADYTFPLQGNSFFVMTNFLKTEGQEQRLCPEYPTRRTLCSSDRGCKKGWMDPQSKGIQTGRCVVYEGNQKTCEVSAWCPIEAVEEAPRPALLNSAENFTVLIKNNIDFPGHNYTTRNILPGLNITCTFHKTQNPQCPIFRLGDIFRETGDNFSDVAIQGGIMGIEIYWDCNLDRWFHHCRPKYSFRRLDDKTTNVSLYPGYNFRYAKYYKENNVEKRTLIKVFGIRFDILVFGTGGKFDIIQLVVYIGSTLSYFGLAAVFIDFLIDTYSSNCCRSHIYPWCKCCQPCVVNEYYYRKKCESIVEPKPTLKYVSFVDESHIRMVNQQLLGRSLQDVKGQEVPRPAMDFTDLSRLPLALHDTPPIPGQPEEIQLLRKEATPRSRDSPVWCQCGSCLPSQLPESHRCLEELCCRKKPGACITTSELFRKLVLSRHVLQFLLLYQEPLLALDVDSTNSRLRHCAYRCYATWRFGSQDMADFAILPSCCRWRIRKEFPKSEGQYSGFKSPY
Assay: Human P2X7 functional assay (Ca2+ influx, Fluo-4, FDSS)
Details: antagonistic activity with respect to the human P2X7 receptor; BzATP final concentration 80 microM
pIC50: −log10 of the molar value.
MEASURED ATTRIBUTE: pIC50

Below are worked cases with known answers.
>  <COMPOUND>
Cc1cc(Cl)cc(Cl)c1CNC(=O)C1(F)CCC(O)c2ncccc21 (centres unmarked) [Example 18]

>  <pIC50>
> 7.30

$$$$
>  <COMPOUND>
O=C(NCc1ccc(F)cc1F)[C@@H]1CC[C@H](O)c2ncccc21 [Example 74]

>  <pIC50>
6.52 to 7.00

$$$$

Request the reported pIC50 associated with O=C(NCc1c(Cl)cc(Cl)cc1CO)[C@]1(F)CC[C@H](OCCO)c2ncccc21 [Example 343]
> 7.30

Moving on to C[C@@H](NC(=O)[C@]1(F)CC[C@H](O)c2ncccc21)c1ccc(F)cc1Cl [Example 237]
> 7.30

Another compound: N#CC[C@]1(O)CC[C@@](F)(C(=O)NCc2ccc(F)cc2Cl)c2cccnc21 [Example 281]
6.00 to 6.52

What do you have for O=C1CC[C@@](F)(C(=O)NCc2c(F)cc(Cl)cc2Cl)c2cccnc21 [Example 251] ?
> 7.30

Lookup C[C@H](NC(=O)[C@]1(F)CC[C@](C)(O)c2ncccc21)c1ccc(F)cc1Cl [Example 271]
6.00 to 6.52

Check Cc1ccc(CNC(=O)[C@]2(F)CC[C@@H](O)c3ncccc32)c(Cl)c1 [Example 125] too.
6.52 to 7.00

Repeat with O=C(NCc1c(F)cccc1F)[C@]1(F)CC[C@H](O)c2ncccc21 [Example 217]
6.52 to 7.00

What do you have for O=C(NCc1ccc(F)cc1Cl)[C@]1(F)CC[C@H](O)c2ncc(F)cc21 [Example 242] ?
> 7.30

Also N#CC[C@]1(O)CC[C@@](F)(C(=O)NCc2c(Cl)cc(F)cc2CO)c2cccnc21 [Example 284] , if possible.
> 7.30

Do the same for O=C(NCc1ccc(Br)cc1F)[C@]1(F)CC[C@H](O)c2ncccc21 [Example 182] please
> 7.30

Field entry: O=C(NCc1cc(F)cc(F)c1)[C@]1(F)CC[C@H](O)c2ncccc21 [Example 221]
6.00 to 6.52

Proceed to O=C(NCc1c(Cl)cc(Cl)cc1CO)[C@]1(F)CC[C@@H](O)c2ncccc21 [Example 104]
> 7.30

Same for O=C(NCc1ccc(Cl)cc1Cl)[C@]1(F)CC[C@@](O)(CN2CC(O)C2)c2ncccc21 (relative stereo) [Example 51]
> 7.30

Similarly, O=C(NCc1ccc(F)cc1Cl)[C@@H]1CC[C@@H](O)c2ncccc21 [Example 89] ?
6.52 to 7.00

Moving on to CO[C@H]1CC[C@](F)(C(=O)NCc2c(Cl)cc(Cl)cc2CO)c2cccnc21 [Example 333]
6.52 to 7.00

###

Target: human P2X7 (Homo sapiens (Human))
Test: Human P2X7 functional assay (Ca2+ influx, Fluo-4, FDSS)
Conditions: antagonistic activity with respect to the human P2X7 receptor; BzATP final concentration 80 microM
# IC50 listing for each entry below

Some molecules with recorded IC50:
>  <MOLECULE>
O=C(NCc1ccc(F)cc1Cl)[C@]1(F)CC[C@@](O)(CNCCO)c2ncccc21 (relative stereo)

>  <SYSTEM NAME>
human P2X7 (Homo sapiens (Human))

>  <IC50>
< 50 nM

$$$$
>  <MOLECULE>
O=C(NCc1ccc(Br)cc1Cl)[C@]1(F)CC[C@@H](O)c2ncccc21

>  <SYSTEM NAME>
human P2X7 (Homo sapiens (Human))

>  <IC50>
< 50 nM

$$$$
>  <MOLECULE>
NCC1(O)CCC(F)(C(=O)NCc2cccc(C(F)(F)F)c2Cl)c2cccnc21 (centres unmarked)

>  <SYSTEM NAME>
human P2X7 (Homo sapiens (Human))

>  <IC50>
< 50 nM

$$$$
>  <MOLECULE>
O=C(NCc1nc(-c2ccc(Cl)cc2)cs1)[C@]1(F)CC[C@H](O)c2ncccc21

>  <SYSTEM NAME>
human P2X7 (Homo sapiens (Human))

>  <IC50>
101 to 300 nM

$$$$
>  <MOLECULE>
O=C1CC[C@@](F)(C(=O)NCc2ccc(C(F)(F)F)cc2Cl)c2cccnc21

>  <SYSTEM NAME>
human P2X7 (Homo sapiens (Human))

>  <IC50>
< 50 nM

$$$$
>  <MOLECULE>
O=C(NCc1ccc(F)cc1Cl)[C@]1(F)CC[C@@](O)(CO)c2ncccc21

>  <SYSTEM NAME>
human P2X7 (Homo sapiens (Human))

>  <IC50>
< 50 nM

$$$$
>  <MOLECULE>
C[C@]1(O)CC[C@@](F)(C(=O)NCc2ccc(F)cc2F)c2cccnc21

>  <SYSTEM NAME>
human P2X7 (Homo sapiens (Human))

>  <IC50>
< 50 nM

$$$$
>  <MOLECULE>
COc1ccc(CNC(=O)[C@]2(F)CC[C@H](O)c3ncccc32)c(C(F)(F)F)c1

>  <SYSTEM NAME>
human P2X7 (Homo sapiens (Human))

>  <IC50>
101 to 300 nM

$$$$

Requested field: IC50. Item: O=C(NCc1cccc(Cl)c1Cl)[C@]1(F)CC[C@H](O)c2ncccc21
< 50 nM

Follow-up item: COC1(C)CN(C[C@]2(O)CC[C@@](F)(C(=O)NCc3ccc(F)cc3Cl)c3cccnc32)C1 (relative stereo)
< 50 nM

Again, but for O=C(NCc1cccc(Cl)c1Cl)[C@@]1(F)CC[C@H](O)c2ncccc21
1000 to 3000 nM

Lookup O=C(NCc1c(Cl)cc(Cl)cc1CO)[C@@]1(F)CC[C@H](O)c2ncccc21
101 to 300 nM

Same for O=C(NCc1ccc(F)cc1Cl)[C@@H]1CC[C@H](O)c2ncccc21
< 50 nM

Now this one: O=C(NCc1ncc(C(F)(F)F)cc1Cl)[C@]1(F)CC[C@H](O)c2ncccc21
< 50 nM
